B1: USP39 (parent)
chain: FQGSMRIFTKKLPHPDLPAEEKEQ

# Variants of: B1
# PROTOCOL: protein stability index of a GFP-peptide fusion (GPS, HEK-293T) (PSI 1-6); higher = more stable;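 also: lentivirally expressed fusions sorted by FACS into six bins by GFP to DsRed ratio, PSI derived from sequencing read proportions per bin multiplied by bin number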
# APPLIED CONDITIONS: c terminus: a fixed tail appended
REPORTED METRIC: protein stability index
Output spec: single numeric token, no unit.

Input line: Entry under review: P15M . Reported protein stability index?
Output line: 2.1

Input line: Then what about the variant S4P ?
Output line: 2.3

Input line: Then what about the variant M5I ?
Output line: 1.66

Input line: Then what about the variant A19Q ?
Output line: 2.31

Input line: Then what about the variant P18G ?
Output line: 1.98

Input line: Then what about the variant S4W ?
Output line: 2.04

Input line: Then what about the variant A19T ?
Output line: 1.68

Input line: Then what about the variant F1Y ?
Output line: 2.11

Input line: Then what about the variant A19R ?
Output line: 1.64

Input line: Then what about the variant K10T ?
Output line: 1.19

Input line: Then what about the variant G3E ?
Output line: 2.17

Input line: Then what about the variant F8P ?
Output line: 3.42

Input line: Then what about the variant L17S ?
Output line: 1.95

Input line: Then what about the variant D16Y ?
Output line: 2.18

Input line: Then what about the variant K11A ?
Output line: 1.68

Input line: Then what about the variant S4N ?
Output line: 1.79

Input line: Then what about the variant F1G ?
Output line: 4.66

Input line: Then what about the variant E21S ?
Output line: 2.12

Input line: Then what about the variant P15Y ?
Output line: 1.34

Input line: Then what about the variant E21Y ?
Output line: 1.62

Input line: Then what about the variant F8S ?
Output line: 3.29

Input line: Then what about the variant G3H ?
Output line: 2.54
